biological target: equine FcRn (large alpha subunit p51) in complex with equine beta-2-microglobulin (equine) (UniProt F6XZ61); test: SPR (Biacore), pH 6
observable: pKd
Quick note: pKd values are minus log10 of concentrations in mol/L.

Given equine IgG7 T286V mutant (antibody, part only; not given: Variable domains, not shown: another chain or arm of the molecule) constant: ASTTAPKVFPLASHSAATSGSTVALGCLVSSYFPEPVTVSWNSGALTSGVHTFPSVLQSSGLYSLSSMVTVPASSLKSQTYICNVAHPASSTKVDKKIVIKECGGCPTCPECLSVGPSVFIFPPKPKDVLMISRTPTVTCVVVDVGHDFPDVQFNWYVDGVETHVATTEPKQEQNNSTYRVVSILAIQHKDWLSGKEFKCKVNNQALPAPVQKTISKPTGQPREPQVYVLAPHRDELSKNKVSVTCLVKDFYPTDIDIEWKSNGQPEPETKYSTTPAQLDSDGSYFLYSKLTVETNRWQQGTTFTCAVMHEALHNHYTEKSVSKSPGK , state its recorded pKd.
8.64
